Reported values: Ki for S. pneumoniae Nan A (Streptococcus pneumoniae), one per item.
Express your answer in nM, writing the number without its unit.

- O=C(C=Cc1ccc(O)cc1)C=C(O)C=Cc1ccc(O)cc1: 1200
- COc1ccc(/C=C/C(=O)/C=C(O)/C=C/c2ccc(O)c(O)c2)cc1O: 140
- COc1cc(/C=C/C(=O)/C=C(O)/C=C/c2ccc(N)cc2)ccc1O: 800

Now examine the next entry.
Ask: Dear colleague, please send me the reported Ki for "COc1cc(/C=C/C(=O)/C=C(O)/C=C/c2ccc(O)c(OC)c2)ccc1O" when you can.
Result: 1300

---

Reported values: IC50 for Vibrio cholerae sialidase (Vibrio cholerae serotype O1, UniProt P0C6E9), one per item.
Express your answer in µM, writing the number without its unit.

# count of solved cases: 3
* COc1cc(/C=C/C(=O)/C=C(O)/C=C/c2ccc(N(C)C)cc2)ccc1O [Compound 5r] | 1.9
* COc1cc(C=CC(O)=CC(=O)C=Cc2cccnc2)ccc1O [Compound 5g] | 43.6
* COc1cc(/C=C/C(=O)/C=C(O)/C=C/c2ccc(O)cc2)ccc1O [Compound 5p] | 4.3

Ask: Lab note: record IC50 of COc1cc(/C=C/C(=O)/C=C(O)/C=C/c2ccc(OC(C)=O)c(OC)c2)ccc1OC(C)=O [Compound 7] tested on Vibrio cholerae sialidase (Vibrio cholerae serotype O1, UniProt P0C6E9).
Sequence (P0C6E9 25-781): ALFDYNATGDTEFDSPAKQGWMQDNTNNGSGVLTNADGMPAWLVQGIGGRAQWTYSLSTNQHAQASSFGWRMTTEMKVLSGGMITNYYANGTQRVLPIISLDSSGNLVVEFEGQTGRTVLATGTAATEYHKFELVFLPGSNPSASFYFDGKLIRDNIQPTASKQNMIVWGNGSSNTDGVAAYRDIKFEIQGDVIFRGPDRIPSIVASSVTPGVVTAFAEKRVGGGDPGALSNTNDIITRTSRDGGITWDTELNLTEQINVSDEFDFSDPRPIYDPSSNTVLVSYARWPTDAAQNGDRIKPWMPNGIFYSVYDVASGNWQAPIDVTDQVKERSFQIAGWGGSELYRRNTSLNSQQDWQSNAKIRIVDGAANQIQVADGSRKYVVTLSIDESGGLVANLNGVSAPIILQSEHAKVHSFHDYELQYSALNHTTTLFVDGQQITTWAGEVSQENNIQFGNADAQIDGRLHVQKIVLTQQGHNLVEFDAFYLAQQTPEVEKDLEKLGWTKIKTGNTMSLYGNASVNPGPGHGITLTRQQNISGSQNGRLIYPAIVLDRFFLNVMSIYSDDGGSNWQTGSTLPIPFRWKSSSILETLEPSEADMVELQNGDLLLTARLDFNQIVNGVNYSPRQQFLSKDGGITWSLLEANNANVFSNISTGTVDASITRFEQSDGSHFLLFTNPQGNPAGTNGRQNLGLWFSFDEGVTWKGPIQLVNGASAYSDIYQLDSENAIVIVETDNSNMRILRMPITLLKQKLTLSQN
Result: 37.5

---

Reported values: log10(IC50) for S. pneumoniae Nan A (Streptococcus pneumoniae, UniProt P62575), one per item.
On a log10 scale: recorded IC50, unit µM.

# count of solved cases: 5
• COc1ccc(/C=C/C(=O)/C=C(O)/C=C/c2ccc(O)c(O)c2)cc1O = -0.70
• COc1cc(C=Cc2cc(C=Cc3ccc(O)c(OC)c3)[nH]n2)ccc1O = 0.79
• COc1cc(C=CC(O)=C2CCCC(=Cc3ccc(O)c(OC)c3)C2=O)ccc1O = 0.67
• COC(=O)CCCOc1ccc(C=CC(=O)C=C(O)C=Cc2ccc(O)c(OC)c2)cc1OC = 0.00
• COc1ccc(/C=C/C(O)=C/C(=O)/C=C/c2ccc(O)c(OC)c2)cc1 = 0.08

Ask: Lab note: record log10(IC50) of "COc1cc(/C=C/C(=O)/C=C(O)/C=C/c2ccc(N(C)C)cc2)ccc1O" tested on S. pneumoniae Nan A (Streptococcus pneumoniae, UniProt P62575).
Sequence (P62575 319-822 limits assumed): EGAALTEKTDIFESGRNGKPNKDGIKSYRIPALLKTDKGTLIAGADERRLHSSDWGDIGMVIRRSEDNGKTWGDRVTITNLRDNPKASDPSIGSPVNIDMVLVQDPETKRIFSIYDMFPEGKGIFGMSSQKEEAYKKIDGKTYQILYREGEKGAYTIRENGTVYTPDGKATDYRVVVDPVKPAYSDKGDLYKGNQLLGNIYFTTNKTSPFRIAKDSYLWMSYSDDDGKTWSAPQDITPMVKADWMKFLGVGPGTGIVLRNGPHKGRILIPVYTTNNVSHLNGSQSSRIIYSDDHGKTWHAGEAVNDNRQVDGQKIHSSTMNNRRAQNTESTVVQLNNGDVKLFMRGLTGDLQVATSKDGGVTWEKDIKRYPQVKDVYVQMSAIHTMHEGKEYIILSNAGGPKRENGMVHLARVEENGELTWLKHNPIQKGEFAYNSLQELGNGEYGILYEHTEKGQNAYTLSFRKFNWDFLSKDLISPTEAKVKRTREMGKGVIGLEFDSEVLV
Result: 0.18

Ask: Lab note: record log10(IC50) of "CCOc1cc(/C=C/C(O)=C/C(=O)/C=C/c2ccc(O)c(OC)c2)ccc1O" tested on S. pneumoniae Nan A (Streptococcus pneumoniae, UniProt P62575).
Result: 0.18

Ask: Lab note: record log10(IC50) of "COc1cc(/C=C/C(=O)/C=C(O)/C=C/c2ccc(OC(C)=O)c(OC)c2)ccc1OC(C)=O" tested on S. pneumoniae Nan A (Streptococcus pneumoniae, UniProt P62575).
Result: 0.41

Ask: Lab note: record log10(IC50) of "COc1ccc(/C=C/C(=O)/C=C(O)/C=C/c2ccc(OC)c(OC)c2)cc1OC" tested on S. pneumoniae Nan A (Streptococcus pneumoniae, UniProt P62575).
Result: 0.53

Ask: Lab note: record log10(IC50) of "O=C(C=Cc1ccc(O)cc1)C=C(O)C=Cc1ccc(O)cc1" tested on S. pneumoniae Nan A (Streptococcus pneumoniae, UniProt P62575).
Result: 0.60

Ask: Lab note: record log10(IC50) of "COc1cc(CCC(=O)/C=C(\O)CCc2ccc(O)c(OC)c2)ccc1O" tested on S. pneumoniae Nan A (Streptococcus pneumoniae, UniProt P62575).
Result: 1.91

Ask: Lab note: record log10(IC50) of "COc1cc(/C=C/C(=O)/C=C(O)/C=C/c2ccccc2)ccc1O" tested on S. pneumoniae Nan A (Streptococcus pneumoniae, UniProt P62575).
Result: 0.85

Ask: Lab note: record log10(IC50) of "COc1cc(/C=C/C(O)=C/C(=O)/C=C/c2ccc(OC)c(OC)c2)ccc1O" tested on S. pneumoniae Nan A (Streptococcus pneumoniae, UniProt P62575).
Result: 0.18

Ask: Lab note: record log10(IC50) of "COc1cc(/C=C/C(=O)/C=C(O)/C=C/c2ccc(O)cc2)ccc1O" tested on S. pneumoniae Nan A (Streptococcus pneumoniae, UniProt P62575).
Result: -0.22

Data provenance is paper PMC6104608.
